- Assay: qHTS assay for small molecule agonists of the p53 signaling pathway (AID 651631); also: nearly all actives have a fitted effect of over 15% in size
- Condition label: HCT-116 p53RE-bla reporter, beta-lactamase FRET ratio, 16 h; series mostly up to 73.3 µM
Inconclusive results are not listed. Activity calls are given as the source filed them. Calls follow the shape of the full dose curve.
The categories you may choose from are active, inactive

Some solved cases for reference:
[
  {
    "Compound": "Fc1c(F)c(F)c(Br)c(F)c1F",
    "Qualitative label": "inactive"
  },
  {
    "Compound": "Cc1cc(O)c2c(O)c3c(O)cccc3cc2c1",
    "Qualitative label": "inactive"
  },
  {
    "Compound": "C[C@]12CCC(=O)C=C1C=C[C@@H]1[C@@H]2CC[C@@]2(C)[C@H]1CC[C@@]21CCC(=O)O1",
    "Qualitative label": "inactive"
  },
  {
    "Compound": "O=C(O)Cc1ccc(-c2ccccc2)cc1",
    "Qualitative label": "inactive"
  },
  {
    "Compound": "CO[C@@]12[C@H](COC(N)=O)C3=C(C(=O)C(C)=C(N)C3=O)N1C[C@@H]1N[C@@H]12",
    "Qualitative label": "active"
  }
]

How was CCn1cc(C(=O)O)c(=O)c2cc(F)c(N3CCNCC3)nc21 classified in this test? inactive

What about this compound? CC(=N\O)/C(C)=N/O inactive

Further, for c1ccc(COCc2ccccc2)cc1 ? inactive

# iterate: NCC1CCCC(CN)C1 (configuration not stated) inactive

Do the same for CCCOC(=O)c1ccc(N)cc1 please inactive

How about Cc1nc2ccccc2s1 ? inactive

Try this compound next: CC1=CC(=O)CC(C)(C)C1(O)/C=C/C(C)=C\C(=O)O (configuration not stated) inactive

Next: CCCCOC(=O)CCS inactive

// next record CN1C(=O)CC(C)(c2ccccc2)C1=O (configuration not stated) inactive

And for CC1(C)O[C@@H]2C[C@H]3[C@@H]4CCC5=CC(=O)C=C[C@]5(C)[C@H]4[C@@H](O)C[C@]3(C)[C@]2(C(=O)CO)O1 ? inactive

Please answer likewise for COc1ccc(CCC(=O)c2c(O)cc(O[C@@H]3O[C@H](CO)[C@@H](O)[C@H](O)[C@H]3O[C@@H]3O[C@@H](C)[C@H](O)[C@@H](O)[C@H]3O)cc2O)cc1O inactive

Try this compound too: C=CC(C)(O)CCCC(C)CCCC(C)CCCC(C)C (configuration not stated) inactive

Now try CC(C)(C)C(=O)O . inactive

Also CC(=O)CC(c1ccc([N+](=O)[O-])cc1)c1c(O)c2ccccc2oc1=O (configuration not stated) , if possible. inactive

* * *

- Assay: qHTS RealTime-Glo MT Cell Viability Assay in HepG2 cells - 8 hour (AID 1224873); also: nearly all actives have a fitted effect of over 55% in size
- Condition label: RealTime-Glo luminescence; series mostly up to 76.8 µM
Results filed as inconclusive are left out. The source made the active and inactive calls. Calls come from the whole dose curve; as a rule, active = well fitted cell-killing curve with a large enough effect in the repeat runs; inconclusive = weak or mixed curves; inactive = flat fitted curve, though single readings scatter.
Mark one answer only. Choices: true for active, false for inactive

[
  {
    "Compound": "O=C(CCC1CCN(Cc2ccccc2)CC1)c1ccc2c(c1)NCCCC2",
    "Qualitative label": "false"
  },
  {
    "Compound": "CCOC(=N)CC(=O)OCC",
    "Qualitative label": "false"
  },
  {
    "Compound": "CCCCCCCCCCCC[N+](C)(C)CC(=O)[O-]",
    "Qualitative label": "false"
  }
]

What did the test return for CC(C)CCCCCCOC(=O)CCCCC(=O)OCCCCCCC(C)C ? false

Repeat with NC(=O)Nc1ccc(Cl)c(Cl)c1 false

Now this one: CC(=O)Oc1ccc(C(=C2CCCCC2)c2ccc(OC(C)=O)cc2)cc1 false

Same question for CCOC(=O)c1ccccc1OC please. false

Same question for CCCC1C(CC)=CC(CC)=CN1c1ccccc1 (stereo not drawn) please. false

Recorded values, source PubChem BioAssay (Tox21).
